Sourced from paper PMC9482650

Biological target: IL16_4, Q14005
Sequence (Q14005 1229-1329): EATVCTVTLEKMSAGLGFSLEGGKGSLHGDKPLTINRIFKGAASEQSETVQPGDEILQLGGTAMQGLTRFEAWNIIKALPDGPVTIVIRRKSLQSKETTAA
Experiment: holdup assay
Parameters: key: below the threshold = too weak to quantify, mostly under pKd 3.1 to 4
Conditions: plain residues with an end cap or a label only (N-terminal biotin on a linker: ado-ado)
METRIC_NAME: pKd

Reference set (5 entries):
- BINDER: "EDLEDEWEVI [TECPR2, O15040]"
  METRIC_NAME: "pKd"
  RESULT: "below the threshold"
- BINDER: "RQKEVRESKC [SCN8A, Q9UQD0]"
  METRIC_NAME: "pKd"
  RESULT: 3.68
- BINDER: "VKRNSKETVV [MARCHF3, Q86UD3]"
  METRIC_NAME: "pKd"
  RESULT: "below the threshold"
- BINDER: "TNSRHGETTV [FZD2, Q14332]"
  METRIC_NAME: "pKd"
  RESULT: "below the threshold"
- BINDER: "LKDDELKTKL [SLCO1A2, P46721]"
  METRIC_NAME: "pKd"
  RESULT: 3.61

# per-item lookup of pKd; items listed below
1. NTLNRKTTPV [CACNG8, Q8WXS5]
2. VLYPREGTEV [FOXI1, Q12951]
3. DTKNYKQTSV [CRIPT, Q9P021]

Return:
1: 3.59; 2: below the threshold; 3: 3.71
